Data provenance: patent US20180230200A1

- System Under Test: T1, gH/gL/UL128/UL130/UL131A pentamer complex expressed from MVA-PC in BHK-21 cells (human cytomegalovirus, UniProt P12824 24-743; P16832 31-278; P16837 28-171; P16772 1-214; F5HET4 19-129)
- T1 construct: whole, on cells
- Measurement Notes: FC, biotinylated NAb titrated on MVA-PC-infected BHK-21 (cell surface PC)
Readings of EC50 for the listed binders
Answer in nM, number only, no unit symbol.

Task: Entry 12E2 (antibody, V domains shown, also called NAb 12E2) VH: EVKLVESGGGLVQPGGSLKLSCATSGFTFSDYYMFWVRQTPEKKLEWVAYISNGGGSTYYPDTVKGRFTISRDNDKNTLYLQMSRLKSDDTALYYCVRPKRDFQYLYAMDYWGQGTSVTVSS VL: DIVLTQSPASLAVSLGQRATISCRASKSVSTSGYSYMHWYQQKPGQSPKLLIYLASNLESGVPARFSGSGSGTDFTLNIHPVEDEDAATYYCQHSRELPWTFGGGTKLEIK : reported EC50 = ?
Result: 1.1

Task: Entry 18F10 (antibody, V domains shown, also called NAb 18F10) VH: QVTLKESGPGILQPSQTLSLTCSFSGFSLSTYGIGIGWIRQPSGKGLEWLAHIWWNDNKNYNTALKSRLTISKDPSNNQVFLKIASVDTADTATYFCARTGYFDVWGAGTTVTVSS VL: DVVLTQTPLSLPVSLGDQVSISCSSSQSLVHSNGNTYIHWYLQKPGQSPKLLIYTVSNRFSGVPDRFSGSGSGTDFTLKISRVEAEDLGLYFCSQSTHVPYTFGGGTKLEIK : reported EC50 = ?
Result: 6.5

Task: Entry 13B5 (antibody, V domains shown, also called NAb 13B5; 1365) VH: QVTLKESGPGILKPSQTLSLTCSFSGFSLTTSGLGVGWIRQPSGKGLEWLAHIWWDDDKYFNPSLRNQLTISKDTSRNQVFLEITSVTTADTATYYCVRSLYDYDEGYYFDSWGQGTTLTVSS VL: EIVMIQSPATLSVNPGDRVSLSCRASQSISDYLHWYQQKSHESPRLLIKYASQSISGIPSRFSGSGSGSDFTLSINSVEPEDVGVYYCQNGHTFPPTFGGGTKLEIK : reported EC50 = ?
Result: 0.68

Task: Entry 2-80 (antibody, V domains shown, also called NAb 2-80) VH: QIQLVQSGPELKKPGETVKISCKASGYTFTNFGMNWVKQAPGKGLKWMGWINTYTGEPTYADDFKGRFAFSLETSASTASLQINNLKNEDTATYFCARRGDGLYSMDYWGQGTSVTVSS VL: DIVLTQSPASLAVSLGQRATISCRASESIDSYGNSFMYWYQQKPGQPPKLLIYRASNLESGIPARFSGSGSRTDFTLTINPVEADDVATYYCQQSNEDPLTFGAGTKLELK : reported EC50 = ?
Result: 2.8
